# systemName: T1, human iRhom2, endogenously expressed (human, UniProt Q6PJF5 1-856)
# T1 construct: also called RHBDF2
# T1 sequence: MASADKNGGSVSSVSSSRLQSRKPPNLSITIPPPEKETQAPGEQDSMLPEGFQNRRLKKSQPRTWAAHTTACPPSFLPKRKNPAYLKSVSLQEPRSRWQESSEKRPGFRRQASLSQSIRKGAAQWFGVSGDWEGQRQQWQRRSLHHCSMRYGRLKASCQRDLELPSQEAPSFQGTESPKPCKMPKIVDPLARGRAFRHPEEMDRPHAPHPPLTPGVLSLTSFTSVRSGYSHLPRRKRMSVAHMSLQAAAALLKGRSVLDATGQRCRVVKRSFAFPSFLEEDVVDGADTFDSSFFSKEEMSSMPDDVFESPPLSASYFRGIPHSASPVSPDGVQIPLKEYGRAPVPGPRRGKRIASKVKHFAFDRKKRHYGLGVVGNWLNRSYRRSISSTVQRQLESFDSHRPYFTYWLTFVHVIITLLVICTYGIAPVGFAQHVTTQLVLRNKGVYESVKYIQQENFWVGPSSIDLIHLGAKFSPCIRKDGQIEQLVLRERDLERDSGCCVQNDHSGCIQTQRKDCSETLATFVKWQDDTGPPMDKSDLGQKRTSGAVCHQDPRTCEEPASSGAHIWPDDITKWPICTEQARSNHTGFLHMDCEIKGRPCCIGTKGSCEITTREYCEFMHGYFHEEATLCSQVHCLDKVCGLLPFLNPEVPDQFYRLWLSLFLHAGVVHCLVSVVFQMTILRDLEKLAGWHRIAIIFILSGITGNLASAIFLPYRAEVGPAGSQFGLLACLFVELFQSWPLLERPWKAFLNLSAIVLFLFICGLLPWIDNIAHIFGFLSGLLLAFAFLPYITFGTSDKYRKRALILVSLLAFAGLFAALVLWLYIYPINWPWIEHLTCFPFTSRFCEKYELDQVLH
# testDetails: indirect FACS scatchard analysis on THP-1 cells
Let's look at some binders and their measured pKd.
Field pKd (float): negative decimal logarithm of the concentration in molar.

[[record]]
binder = "antibody 22 (antibody, V domains shown, mouse IgG, kappa light chain; also called clone #22; purified antibody 22) VH: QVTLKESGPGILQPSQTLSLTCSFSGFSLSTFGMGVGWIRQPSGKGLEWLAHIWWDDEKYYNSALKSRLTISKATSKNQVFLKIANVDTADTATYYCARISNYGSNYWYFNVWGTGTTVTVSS VL: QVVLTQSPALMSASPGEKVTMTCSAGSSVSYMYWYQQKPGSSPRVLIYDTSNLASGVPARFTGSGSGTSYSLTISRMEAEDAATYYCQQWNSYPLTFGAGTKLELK"
quantitykind = "pKd"
measuredvalue = 8.69

[[record]]
binder = "antibody 50 (antibody, V domains shown, mouse IgG, kappa light chain; also called clone #50; purified antibody 50) VH: QVQLQQSGAELVRPGASVKVSCKASGYAFSNYLIEWVKQRPGQGLEWIGVINPGSGFTKYNEKFKGKATLTADKSSSTAYMQLSSLTSEDSAVYFCARGLYRAMDYWGQGTSVTVSS VL: DIQMTQSPASQSASLGESVTITCLASQTIGTWLAWYQQKPGKSPQLLIYAAASLADGVPSRFSGGGSGTKFSFKISSLQAEDFVNYYCQQIYSTPYTFGGGTKLEIK"
quantitykind = "pKd"
measuredvalue = 8.84

[[record]]
binder = "antibody 44 (antibody, V domains shown, mouse IgG, kappa light chain; also called clone #44; purified antibody 44) VH: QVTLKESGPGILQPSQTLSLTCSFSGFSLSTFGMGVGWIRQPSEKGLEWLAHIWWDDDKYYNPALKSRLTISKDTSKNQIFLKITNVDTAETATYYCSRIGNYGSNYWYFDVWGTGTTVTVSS VL: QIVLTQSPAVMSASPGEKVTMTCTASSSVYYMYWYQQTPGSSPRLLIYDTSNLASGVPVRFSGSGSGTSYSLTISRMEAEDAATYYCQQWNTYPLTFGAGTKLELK"
quantitykind = "pKd"
measuredvalue = 9.36


Now let's try a different one.
// pKd value for antibody 48 (antibody, V domains shown, mouse IgG, kappa light chain; also called clone #48; purified antibody 48) VH: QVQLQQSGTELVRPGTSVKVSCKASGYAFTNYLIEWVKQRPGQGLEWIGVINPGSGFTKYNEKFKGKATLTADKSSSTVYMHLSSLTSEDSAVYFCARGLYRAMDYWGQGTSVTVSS VL: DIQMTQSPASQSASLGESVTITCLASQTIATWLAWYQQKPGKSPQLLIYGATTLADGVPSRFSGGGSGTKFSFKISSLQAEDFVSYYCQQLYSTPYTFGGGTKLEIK : 8.76
